- Tested on: MDCK cells
- protocol-text: Toxicity observed in the cell scattering screening
- Type: cell-based
- test-settings: Table 1, scattering screening
endpoint-name: Toxicity

INSERT INTO assay_data (smiles_repr, endpoint_name, observed_result) VALUES
  ('O=C(Cc1cc(C(F)(F)F)cc(C(F)(F)F)c1)N[C@H](Cc1ccccc1)C(=O)Nc1ccc(-c2cn3c(n2)sc2ccccc23)cc1', 'Toxicity', '>50 µM'),
  ('O=C(Cc1cc(C(F)(F)F)cc(C(F)(F)F)c1)N[C@@H](Cc1ccccc1)C(=O)Nc1ccc(-c2cn3c(n2)sc2ccccc23)cc1', 'Toxicity', '>50 µM'),
  ('Cc1cc(C)cc(CC(=O)N[C@@H](Cc2ccccc2)C(=O)Nc2ccc(-c3cn4c(n3)sc3ccccc34)cc2)c1', 'Toxicity', '>100 µM'),
  ('Cc1cc(C)cc(CC(=O)N[C@H](Cc2ccccc2)C(=O)Nc2ccc(-c3cn4c(n3)sc3ccccc34)cc2)c1', 'Toxicity', '>100 µM'),
  ('O=C(Cc1cc(F)cc(F)c1)N[C@@H](Cc1ccccc1)C(=O)Nc1ccc(-c2cn3c(n2)sc2ccccc23)cc1', 'Toxicity', '>100 µM');
